- TARGET SYSTEM: T1, fibroblast growth factor 5 (FGF-5) (UniProt P12034 21-268, limits assumed)
- T1 sequence (looked up): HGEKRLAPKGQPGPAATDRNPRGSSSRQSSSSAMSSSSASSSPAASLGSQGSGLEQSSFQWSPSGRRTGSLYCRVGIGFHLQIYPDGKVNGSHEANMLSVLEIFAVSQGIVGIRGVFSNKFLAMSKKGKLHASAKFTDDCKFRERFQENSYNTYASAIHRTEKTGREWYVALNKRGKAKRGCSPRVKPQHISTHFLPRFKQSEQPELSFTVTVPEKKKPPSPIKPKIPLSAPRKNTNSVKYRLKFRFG
- MEASUREMENT DESCRIPTION: BioVeris ECL competition with a labeled competitor; negative control for FGF-5 binding
METRIC: IC50

Output IC50 of soybean Bowman-Birk Inhibitor (BBI), wild type (other, Used as the negative control; also called sBBI; BBI-WT) DDESSKPCCDQCACTKSNPPQCRCSDMRLNSCHSACKSCICALSYPAQCFCVDITDFCYEPCKPSEDDKEN
> 250 µM
